- Test system: A549 (lung cancer)
- Protocol: Sulphorhodamine B cytotoxicity test, A549 line
- Type: cell-based
- Protocol conditions: 72 hours incubation, sulphorhodamine B; average of three determinations; read-out: Cytotoxic activity, IC50, A549 (lung cancer)
Experimental endpoint: IC50 (µM)
Output spec: scalar in µM, unitless text.

Fill in the blank: the reported IC50 of "C#CCO[C@@H](c1ccnc2ccccc12)[C@H]1C[C@@H]2CCN1C[C@@H]2C=C" is ____.
11.7

* * *

- Test system: MCF-7 line (breast cancer)
- Protocol: Sulphorhodamine B cytotoxicity test, MCF-7 line
- Assay type: cell-based
- Protocol conditions: 72 hours incubation, sulphorhodamine B; average of three determinations; read-out: Cytotoxic activity, IC50, MCF-7 line (breast cancer)
Experimental endpoint: IC50
For clarity, give the value followed by its unit.

Fill in the blank: the reported IC50 of C#CCO[C@@H](c1ccnc2ccccc12)[C@H]1C[C@@H]2CCN1C[C@@H]2C=C [PCN, 9-O-propargylcinchonine] is ____.
9.02 µM
